- System: RXRa DBDmut IVT, anti-RXR (DBD mutation: RXRa K156A/R161A, NR concentration 90 nM)
- Test details: PBM binding z-score (relative to random genomic background probes); higher = stronger binding; sequences stand for … in GC…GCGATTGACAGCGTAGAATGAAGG
Entry flag: condition met if PBM binding z-score reaches 2; condition not met if it does not.

Example results:
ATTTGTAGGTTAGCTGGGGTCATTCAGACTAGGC : condition met
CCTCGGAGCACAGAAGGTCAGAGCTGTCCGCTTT : condition not met
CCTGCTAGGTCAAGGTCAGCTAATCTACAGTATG : condition met
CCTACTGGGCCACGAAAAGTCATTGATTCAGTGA : condition not met
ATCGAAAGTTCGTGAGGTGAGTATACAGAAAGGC : condition met

[Q] Given the entry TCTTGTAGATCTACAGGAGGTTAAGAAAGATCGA , answer whether its PBM binding z-score meets or surpasses 2.
[A] condition not met

[Q] What do you get for CCGACGGGGGCATAAGGTTACCATAAGCCAGCCC ?
[A] condition met

[Q] Next: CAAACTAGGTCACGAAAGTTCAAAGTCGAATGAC
[A] condition met

[Q] How about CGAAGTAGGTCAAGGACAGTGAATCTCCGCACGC ?
[A] condition not met

[Q] Now try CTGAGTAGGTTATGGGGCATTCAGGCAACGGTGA .
[A] condition not met

###

- System: THRa:RXRa (NR concentration 90 nM, RXRa partner concentration 90 nM)
- Test details: PBM binding z-score (relative to random genomic background probes); higher = stronger binding; sequences stand for … in GC…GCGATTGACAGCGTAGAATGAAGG
Overview of recorded PBM binding z-score for various sequences
Enter a number only.

[Q] Any idea what PBM binding z-score came out for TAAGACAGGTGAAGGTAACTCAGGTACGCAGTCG on THRa:RXRa (NR concentration 90 nM, RXRa partner concentration 90 nM)?
[A] 1.48

###

- System: PPARg:RXRa (NR concentration 180 nM, RXRa partner concentration 90 nM)
- Test details: PBM binding z-score (relative to random genomic background probes); higher = stronger binding; sequences stand for … in GC…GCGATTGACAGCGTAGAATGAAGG
Readout label: PBM binding z-score
Response field accepts a number only; no unit should be typed.

[Q] Which PBM binding z-score value belongs to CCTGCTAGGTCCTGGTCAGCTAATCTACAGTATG ?
[A] -0.294

[Q] Next record, please: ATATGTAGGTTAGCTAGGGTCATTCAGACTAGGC
[A] 4.65

###

Recorded PBM binding z-score values for a group of sequences are listed next.
- Tested on: PPARg:RXRa 30nM:10nM, anti-RXR (NR concentration 30 nM, RXRa partner concentration 10 nM)
- Test details: PBM binding z-score (relative to random genomic background probes); higher = stronger binding; sequences stand for … in GC…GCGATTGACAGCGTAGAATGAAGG
Would you mind answering with just the numeric figure?

Study these solved cases before continuing.
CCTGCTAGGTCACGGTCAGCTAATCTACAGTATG : 1.72
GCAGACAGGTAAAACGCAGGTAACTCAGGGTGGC : -0.834
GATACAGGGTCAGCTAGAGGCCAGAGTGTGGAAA : 0.644
ACAGACAGGTTATGAAGGTAACTCAGGCTATCAT : -0.0537
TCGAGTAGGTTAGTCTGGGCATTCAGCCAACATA : 0.844
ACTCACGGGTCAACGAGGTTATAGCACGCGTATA : 1.72
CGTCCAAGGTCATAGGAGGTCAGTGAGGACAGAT : 2.52
CAAACTAAGTCACCGGAAGGTCAAAGTCCGCATG : 0.812
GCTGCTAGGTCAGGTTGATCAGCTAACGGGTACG : -0.231
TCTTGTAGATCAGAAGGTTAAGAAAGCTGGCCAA : 3.46

[Q] // query PBM binding z-score value for entry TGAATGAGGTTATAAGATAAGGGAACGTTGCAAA
[A] 0.912

[Q] Another: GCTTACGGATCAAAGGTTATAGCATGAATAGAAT
[A] 4.61

[Q] Input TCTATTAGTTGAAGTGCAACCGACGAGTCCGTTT
[A] 3.77

[Q] Now give it for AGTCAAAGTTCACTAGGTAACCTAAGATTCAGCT too.
[A] 4
